- Test system: COLO 205 colon
- RUN DESCRIPTION: NCI-60 one-dose screen, 48 h (100 = growth as untreated, 0 = no growth, -100 = all killed)
- TEST PARAMETERS: 10 µM unless noted
- Experimental: Cells are grown in 96 well plates and exposed to the test compound for 48 hours. Compounds are tested at a single concentration, which is 10^-5 M for most compounds. The reported endpoint is percent growth (GI% or GIPRCNT), where numbers from 0 - 100% represent growth inhibition, and numbers from -100% - 0 represent cell death. For example, a value of 40 represents 60% growth inhibition. A value of 0 means no net growth occurred over the course of the experiment. […]
Compounds without any hit were thinned out: in the full panel of roughly 83,000, 20% have a hit. Calls of active or inactive are those of the source. How the source made its calls: active means growth percent below 10; inactive means the rest.
Recorded growth by entry
MEASURED METRIC: growth

> print(dat)
                                    compound  measured.metric    measured.value
 1  NC1=Nc2cc(OCCCN3Cc4ccccc4C3)c(OCC3CC3)cc2C12CCCC2           growth   -62.5% (active)
 2   O=c1[nH]ccc2c(S(=O)(=O)N3CCCNCC3)cccc12           growth   112% (inactive)
 3  C=CC(=O)N1CCC[C@@H](n2nc(-c3ccc(Oc4ccccc4)cc3)c3c(N)ncnc32)C1           growth  61.3% (inactive)
 4  C=CCN1C(=O)c2cccc3c(-c4ccc5c(c4)ncn5C4CCCCC4)ccc(c23)C1=O           growth    47% (inactive)
 5  CCOC(=O)c1sc(NC(=O)COc2ccc(/C=C3\Cc4ccc(Cl)cc4C3=O)cc2)nc1C           growth   118% (inactive)
 6  CC/C=C\C[C@H]1C/C=C2/C(=O)C=C[C@@H]2C/C=C\CCCC(=O)O1           growth   -13.1% (active)
 7  C=CCC(=O)N[C@H](/C=C/C(=O)O)Cc1ccc(-c2cc(Cl)cc(Cl)c2)cc1           growth  95.7% (inactive)
 8  CC1(O)CC(c2nc(-c3ccc4ccc(-c5ccccc5)nc4c3)c3c(N)nccn23)C1 (stereo not given)           growth   -22.2% (active)
 9  Oc1ccc(/C=N/Nc2nnc(N/N=C/c3ccc(O)cc3O)c3ccccc23)c(O)c1           growth   -23.8% (active)
10    COc1ccc(Cc2cc(-c3ccccc3C)n[nH]c2=O)cc1           growth   100% (inactive)

###

- System: SK-MEL-5 melanoma
- RUN DESCRIPTION: NCI-60 one-dose screen, 48 h (100 = growth as untreated, 0 = no growth, -100 = all killed)
- TEST PARAMETERS: 10 µM unless noted
The panel holds about 83,000 compounds, 20% with a hit somewhere; the sample as a whole holds those more often.
Record satisfied whenever growth is at 90% or higher; record not satisfied when lower.

> print(dat)
                                smiles.code            cat
1  C=CCN1C(=O)c2cccc3c(-c4ccc5c(c4)ncn5C4CCCCC4)ccc(c23)C1=O  not satisfied
2  CN1CCC(CNc2ccc3ncc(-c4cccc(OC(F)(F)F)c4)n3n2)CC1  not satisfied
3             COC(=O)c1[nH]cnc1/N=N/N(C)CCO      satisfied
4  CC(C)n1c(NCCc2ccc(O)c(O)c2)nc2c1c(=O)n(C)c(=O)n2C      satisfied

###

- Tested on: TK-10 renal
- RUN DESCRIPTION: NCI-60 one-dose screen, 48 h
- TEST PARAMETERS: 10 µM unless noted
About 83,000 compounds went through this panel and 20% of them were active in at least one assay; those are over-represented in the sample as a whole. Active and inactive are the calls of the source. Rule for the calls: active = growth percent below 10; inactive = the rest.
Classes used: active, inactive

> print(dat)
                                    compound       cat
 1  O=C(COc1ccc(/C=C2\Cc3ccc(Cl)cc3C2=O)cc1)Nc1nccs1  inactive
 2  CCC1(/C=N/NC(N)=S)NC(=O)NC1=O (centres undefined)  inactive
 3  Cc1cc(-c2cc(O)ccc2Cl)cc2nnc(Nc3ccc(OCCN4CCCC4)cc3)nc12    active
 4  CN1CCN(CCCOc2cccc3nc(Nc4ccc(Cl)c(C(F)(F)F)c4)ccc23)CC1    active
 5      CCN(CC)c1cc2oc3cc(N)cc(=N)c-3nc2cc1C  inactive
 6  Cc1cc([C@@H](C)Nc2ccccc2C(=O)O)c2nc(N3CCOCC3)cc(=O)n2c1  inactive
 7  COc1cc2ncnc(Oc3cccc(NC(=O)Nc4cc(C(C)(C)C(F)(F)F)on4)c3)c2cc1OC    active
 8  Cc1ccc(F)c(NC(=O)Nc2ccc(-c3cccc4[nH]nc(N)c34)cc2)c1    active
 9  CCN1CCN(CCCN(C[C@H]2Cc3ccccc3CN2)[C@H]2CCCc3cccnc32)CC1  inactive
10  NS(=O)(=O)c1ccc(CCN2C(=O)/C(=C\c3ccc(Cl)cc3)C=C2c2ccc3ccccc3c2)cc1  inactive
11    COc1ccc(Cc2cc(-c3ccccc3C)n[nH]c2=O)cc1  inactive
12  O=C(N/N=C/c1ccc(Cl)cc1)c1cc(-c2cc3ccccc3o2)nn1-c1ccccc1  inactive
13  Cc1cc(O)cc(-c2c(-c3ccnc(-c4cccnc4)c3)cnn2C)c1  inactive
14  O=C(Cc1ccccc1)Nc1nnc(NC2CCN(c3nnc(NC(=O)Cc4ccccc4)s3)CC2)s1  inactive
15  COc1cc2c(Oc3ccc4[nH]c(C)cc4c3F)ncnc2cc1OCCCN1CCCC1  inactive
16  COc1cc(N2CCC(N(C)C)CC2)ccc1Nc1ncc(Cl)c(Nc2ccccc2P(C)(C)=O)n1    active
17  CCN1CCN(c2nc(C)cc(N(CCCNc3ccnc4cc(Cl)ccc34)Cc3ccc4c(c3)OCO4)n2)CC1    active
18  COC(=O)N[C@@H](C)CNc1nccc(-c2cn(C(C)C)nc2-c2cc(Cl)cc(NS(C)(=O)=O)c2F)n1  inactive
19  C=CC(=O)Nc1cc2c(Nc3ccc(F)c(Cl)c3)ncnc2cc1OCCCN1CCOCC1    active
20  COc1ccc2c(CCCCC(c3ccccc3)c3ccccc3)c3[n+](cc2c1OC)CCc1cc2c(cc1-3)OCO2    active
21  CN[C@@H]1C[C@H]2O[C@@](C)([C@@H]1OC)n1c3ccccc3c3c4c(c5c6ccccc6n2c5c31)C(=O)N[C@H]4O    active
22  O=C(O)C1(Cc2cccc(Nc3nccs3)n2)CCC(Oc2cccc(Cl)c2F)CC1 (centres undefined)  inactive
23  Fc1ccc(NCc2cn(-c3ccccc3)nc2-c2ccc(OCc3ccccc3)cc2)cc1Cl  inactive
24  Cc1cc(C(=O)NOCCO)c(Nc2ccc(I)cc2F)n(C)c1=O  inactive
25         CCOc1ccc(N=C(C)Nc2ccc(OCC)cc2)cc1  inactive
26  COc1ccc(-c2nocc2-c2cc(OC)c(OC)c(OC)c2)cc1  inactive
27  C[C@@H](C[C@H](CCO)c1cc(C(F)(F)F)cc(C(F)(F)F)c1)c1ccc2ccccc2c1  inactive
28  ClCc1ccc(-c2ccc(Cn3cnc4nc(Cl)nc(Cl)c43)cc2)cc1    active
29  O=C(CNc1nnc(-c2ccc(Cl)cc2)o1)Nc1ccc(-c2nc3ccccc3s2)cc1  inactive
30  N#Cc1c(C(F)(F)F)cc(Nc2ccc3nc(NCCN4CCCC4)oc3c2)n2c1nc1ccccc12  inactive
31  C/C(=C(/c1ccc(Cl)cc1)c1ccc(OCCN2CCCC2)cc1)c1ccccc1  inactive
32  Cc1c(N)ccc(-c2ccc(N)c(C)c2S(=O)(=O)O)c1S(=O)(=O)O  inactive
33  COc1ccc2c(CCc3ccc(Cl)cc3)c3[n+](cc2c1OC)CCc1cc2c(cc1-3)OCO2  inactive
34  Cc1nn(-c2nc3ccccc3[nH]2)c2c1C(c1ccc(OCc3ccc(F)cc3)cc1)CC(=O)N2 (centres undefined)  inactive
35  CCCS(=O)(=O)Nc1ccc(F)c(C(=O)c2c[nH]c3ncc(-c4ccc(Cl)cc4)cc23)c1F  inactive
36  O=C(NOC[C@H](O)CO)c1ccc(F)c(F)c1Nc1ccc(I)cc1F  inactive
37  O=C1C=CC2(NN=C(c3ccccc3)N2c2ccc(Cl)cc2)c2cccc(O)c21 (centres undefined)  inactive
38  Clc1ccc(Nc2nccc(Nc3ccc4[nH]ncc4c3)n2)cc1  inactive
39    O=C(Cn1ccnc1)Nc1ccc(-c2nc3ccccc3s2)cc1  inactive

###

- System: MCF7 breast
- RUN DESCRIPTION: NCI-60 one-dose screen, 48 h (100 = growth as untreated, 0 = no growth, -100 = all killed)
- TEST PARAMETERS: 10 µM unless noted
This is part of a sample that, as a whole, favours compounds with a hit. Of some 83,000 tested, about 20% had one in any assay.
Recorded growth by entry
MEASURED METRIC: growth (%)

> print(dat)
                                   compound  measured.value
1  COc1cc2c(cc1OCCCCCN1CCN(c3ncnc4ccccc34)CC1)N=CC1CCCN1C2=O (stereo not given)            12.1
2  COCc1c(-c2ccc(NC(=O)Nc3cc(C(F)(F)F)ccc3F)c(F)c2)c2c(N)ncnn2c1CN1CCOCC1           -22.9
3  O=C(Nc1ccc(-c2ccnc(Nc3ccc(N4CCOCC4)cc3)n2)cc1)[C@@H]1CCCN1              58
4  CCn1c(-c2nonc2N)nc2c(C#CC(C)(C)O)ncc(OC[C@H]3CCCNC3)c21            15.6
5  O=C(O)c1ccc2c(c1)nc(Nc1cccc(Cl)c1)c1ccncc12            5.91
